Hello, the source for this data is ChEMBL document CHEMBL1201862, in case you need it.

System: HL-60
Test: NCI tumour cell line growth inhibition, 48 h
Structures can show the parent of a compound that is named as a salt. Active and inactive are the calls of the source. Cut-off read from the data, not from the text of the source: active = GI50 up to about 1.1 µM and inactive = higher.
Give your call using only these classes: active, inactive

Problem: Called result for Cc1ccc(S(=O)(=O)NC(=O)Nc2c(S(N)(=O)=O)cc(S(N)(=O)=O)c(Cl)c2Cl)cc1
Result: inactive

Further cases:
Problem: Dear all, I need the recorded test outcome for O=C1CCSCCC(=O)Nc2ccccc2N1 , thank you.
Result: inactive

Problem: Please share the test call associated with COC(=O)c1oc([N+](=O)[O-])c(Cl)c1Cl .
Result: inactive

Problem: # outcome recorded in this test, key = CN1CCC(c2c(O)cc(O)c3c(=O)cc(-c4ccccc4Cl)oc23)C(O)C1 (stereo not given)
Result: active

Problem: Field: outcome | Entry: N=c1ccn2c(n1)O[C@H]1[C@H](O)[C@@H](CO)O[C@H]12 [ANCITABINE HYDROCHLORIDE]
Result: active

Problem: # outcome recorded in this test, key = CC12CCC(C1)C(C)(C)C2OC(=O)c1ccccc1N (stereo not given)
Result: inactive

###

Test system: SF-295
Experiment: NCI tumour cell line growth inhibition, 48 h
Calls of active or inactive are those of the source. Cut-off read from the data, not from the text of the source: active = GI50 up to about 1.1 µM and inactive = higher.
Bench note: report the call from active, inactive

Reference set (5 entries):
Problem: Call for entry Nc1cccc2nsnc12 :
Result: inactive

Problem: Fill in: this test's call for COc1ccc(S(=O)(=O)N2C(=O)CCC2C(=O)NN)cc1 (stereo not given) is ___
Result: inactive

Problem: What was the test verdict on CC#CC#C/C=C1\C=CC2(OC=CC2O)O1 (stereo not given) ?
Result: inactive

Problem: Could you please tell me the result logged for CNc1cccc2c1C(C)C[C@]1(C)C(=O)Nc3ccccc3[C@H]21 (stereo not given in full) in this assay?
Result: inactive

Problem: Write down the call the test reported for this molecule. Item: O=C(Nc1nnc(-c2ccccc2)o1)C(SC(=S)N1CCCCC1)c1ccccc1 (stereo not given)
Result: inactive

***
Problem: Could you kindly confirm the outcome this assay logged for COC(=O)C(=O)C(C(=O)C(=O)Nc1ccccc1C(N)=O)c1nc2ccc(Cl)cc2nc1O (stereo not given) ?
Result: inactive

Problem: For C/C(=C1/N=C(c2ccccc2)OC1=O)c1cccs1 , what call appears in the results of this test?
Result: inactive

Problem: Assay outcome for CCN(CC)CCCC(C)Nc1ccnc2cc3ccccc3cc12 (stereo not given) : what was it?
Result: inactive

Problem: Please state the recorded outcome for this molecule: O=c1[nH]c(=O)n(C2CC(O)C(CO)O2)c2nc3ccc4ccccc4c3nc12 (stereo not given)
Result: inactive

###

Tested on: KM-20L2
Assay: NCI tumour cell line growth inhibition, 48 h
Active and inactive are the calls of the source. Cut-off read from the data, not from the text of the source: active = GI50 up to about 1.1 µM and inactive = higher.
Thanks in advance; please answer with one of these: active, inactive

Problem: Could you please tell me the result logged for CCCCN(CCCC)CCCCNc1c(C)cnc2cc(Cl)ccc12 in this assay?
Result: inactive

***
Problem: # fetch the recorded call for CC(=O)O/N=C(/C)c1ccccc1O here
Result: inactive

Problem: Entry Cc1ccc(S(=O)(=O)Nc2ccccc2C(C)(C)C)cc1 : call = ?
Result: inactive

Problem: For CCC1CN2CCc3cc(OC)c(OC)cc3C2CC1CC1c2cc(OC)c(OC)cc2CCN1C(=O)C(N)Cc1ccccc1.[O-][Cl+3]([O-])([O-])O (centres undefined) , what call appears in the results of this test?
Result: active
